inhibition overview
system: Insulin-degrading enzyme (Homo sapiens)
experimentSummary: cellular IDE Abeta-cleavage inhibition – fluorescence polarization, HEK cells, FAbetaB substrate, primary screen (AID 434962);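 also: IDE supplied by intact live HEK cells; FP after avidin binding of uncleaved biotin substrate so inhibition keeps polarization high; 0% = DMSO wells and 100% = 60 µM reference IDE inhibitor Ii1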
runParameters: at 5.59 µM, active compounds read high
The whole screen tested about 320,000 compounds, of which about 1,300 (0.41%) were called active. Many of the other results were omitted from the sample, so actives are more common in it than they were.
Numbers only; they are read as %.

compound: CS(=O)(=O)N(Cc1ccccc1)c1ccc(C(=O)NN=C2CCCCCC2)cc1
readoutNumber: 18.7
//
compound: CCN(CC(=O)NCc1ccc(F)cc1)S(=O)(=O)c1ccc(Cl)s1
readoutNumber: 7.4
//
compound: Cc1ccccc1CN(c1ccc(C(=O)NCC2CCCO2)cc1)S(C)(=O)=O (stereo not given)
readoutNumber: 10.1
//
compound: COc1ccc(/C=C2\SC(=S)N(CCCC(=O)NC3CCCC3)C2=O)cc1OC
readoutNumber: -2.87
//
compound: COc1cc(/C=C2/SC(=S)N(Cc3ccccc3)C2=O)cc(OC)c1O
readoutNumber: 68.4
//
compound: O=C(Oc1ccc(Br)cc1)c1cccnc1
readoutNumber: 1.44
//
compound: O=C(Oc1c(-c2ccco2)oc2ccccc2c1=O)c1cccnc1
readoutNumber: 68.4
//
compound: COc1ccc(/C=C2\SC(=S)N(CCC(=O)Nc3cccc(C(=O)O)c3)C2=O)cc1OC
readoutNumber: 1.95
//
compound: CNC[C@H]1Oc2c(NC(=O)C3CCCCC3)cccc2C(=O)N([C@H](C)CO)C[C@@H]1C
readoutNumber: 8.42

Here's the next entry for you.
The reported value for CN1CCC(=NNC(=O)c2ccc(N(Cc3ccc(Cl)cc3)S(C)(=O)=O)cc2)CC1 in terms of inhibition is 8.43
